Items are presented alongside their recorded viability, T/C.
System: 695427-040-R-J1-PDC complex spheroids, viability percent T/C
ASSAY PROTOCOL: Anticancer human tumor 695427-040-R-J1-PDC patient-derived colon adenocarcinoma cell line growth inhibition [GQUAD]
RUN CONDITIONS: second compound 0.1 µM; first compound 0.1 µM; hits give low values

- MOLECULE: "O=C(NO)c1cnc(N2CCN(S(=O)(=O)c3ccc4ccccc4c3)CC2)nc1 + CN(C)c1ccc(Nc2c3ccc(NC(=O)CCN4CCCC4)cc3nc3cc(NC(=O)CCN4CCCC4)ccc23)cc1"
  viability, T/C, %: 91.7
- MOLECULE: "COc1ncnc(C2CC2)c1-c1ncc2cnn(Cc3ccc(-c4nc(C(F)(F)F)cn4C(C)C)cc3)c2n1 + Cc1cnc(CNC(=O)c2c(=O)c3ccc(N4CCCN(C)CC4)nc3n3c2sc2ccccc23)cn1"
  viability, T/C, %: 63.2
- MOLECULE: "Nc1ccn(C2OC(CO)C(O)C2(F)F)c(=O)n1 (stereo not given) + Cc1cnc(CNC(=O)c2c(=O)c3ccc(N4CCCN(C)CC4)nc3n3c2sc2ccccc23)cn1"
  viability, T/C, %: 72.5
- MOLECULE: "CCCS(=O)(=O)Nc1ccc(F)c(C(=O)c2c[nH]c3ncc(-c4ccc(Cl)cc4)cc23)c1F + Cc1cnc(CNC(=O)c2c(=O)c3ccc(N4CCCN(C)CC4)nc3n3c2sc2ccccc23)cn1"
  viability, T/C, %: 70.4
- MOLECULE: "CC1COCCN1c1cc(C2(S(C)(=N)=O)CC2)nc(-c2ccnc3[nH]ccc23)n1 (stereo not given) + Cc1[nH]c2ccc(F)cc2c1-c1nc2c3cccnc3c3ncccc3c2[nH]1"
  viability, T/C, %: 72.5

====

Below, each entry is listed alongside its reported viability, T/C.
Tested on: 695427-040-R-J1-PDC complex spheroids, viability percent T/C
ASSAY PROTOCOL: Anticancer human tumor 695427-040-R-J1-PDC cell line growth inhibition [GQUAD];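 also: spheroids exposed to compounds for seven days before readout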
RUN CONDITIONS: second compound 0.1 µM; first compound 0.0316 µM; hits give low values
TEST READOUT: viability, T/C (%)

- COMPOUND: "O=C(c1cc(Cc2n[nH]c(=O)c3ccccc23)ccc1F)N1CCN(C(=O)C2CC2)CC1 + CN(C)c1ccc(Nc2c3ccc(NC(=O)CCN4CCCC4)cc3nc3cc(NC(=O)CCN4CCCC4)ccc23)cc1"
  TARGET ENTITY: "695427-040-R-J1-PDC complex spheroids, viability percent T/C"
  REPORTED RESULT: 107
- COMPOUND: "Cn1ncnc1[C@H]1c2n[nH]c(=O)c3cc(F)cc(c23)N[C@@H]1c1ccc(F)cc1 + Cc1cnc(CNC(=O)c2c(=O)c3ccc(N4CCCN(C)CC4)nc3n3c2sc2ccccc23)cn1"
  TARGET ENTITY: "695427-040-R-J1-PDC complex spheroids, viability percent T/C"
  REPORTED RESULT: 62.9
- COMPOUND: "CC(C)n1c(=O)n(C)c2cnc3cc(F)c(-c4ccc(OCCCN5CCCCC5)nc4)cc3c21 + CN(C)c1ccc(Nc2c3ccc(NC(=O)CCN4CCCC4)cc3nc3cc(NC(=O)CCN4CCCC4)ccc23)cc1"
  TARGET ENTITY: "695427-040-R-J1-PDC complex spheroids, viability percent T/C"
  REPORTED RESULT: 107
- COMPOUND: "CC1COCCN1c1cc(-c2ccnn2C)c2ccnc(-c3ccn[nH]3)c2n1 (stereo not drawn) + Cc1cnc(CNC(=O)c2c(=O)c3ccc(N4CCCN(C)CC4)nc3n3c2sc2ccccc23)cn1"
  TARGET ENTITY: "695427-040-R-J1-PDC complex spheroids, viability percent T/C"
  REPORTED RESULT: 59.9
- COMPOUND: "COc1cc(C2c3cc4c(cc3C(OC3OC5COC(C)OC5C(O)C3O)C3COC(=O)C23)OCO4)cc(OC)c1O (stereo not drawn) + Cc1cnc(CNC(=O)c2c(=O)c3ccc(N4CCCN(C)CC4)nc3n3c2sc2ccccc23)cn1"
  TARGET ENTITY: "695427-040-R-J1-PDC complex spheroids, viability percent T/C"
  REPORTED RESULT: 84.8
- COMPOUND: "CC[C@@]1(O)C(=O)OCc2c1cc1n(c2=O)Cc2cc3c(CN(C)C)c(O)ccc3nc2-1 + CN(C)c1ccc(Nc2c3ccc(NC(=O)CCN4CCCC4)cc3nc3cc(NC(=O)CCN4CCCC4)ccc23)cc1"
  TARGET ENTITY: "695427-040-R-J1-PDC complex spheroids, viability percent T/C"
  REPORTED RESULT: 101
- COMPOUND: "CC[C@@]1(O)C(=O)OCc2c1cc1n(c2=O)Cc2cc3c(CN(C)C)c(O)ccc3nc2-1 + Cc1[nH]c2ccc(F)cc2c1-c1nc2c3cccnc3c3ncccc3c2[nH]1"
  TARGET ENTITY: "695427-040-R-J1-PDC complex spheroids, viability percent T/C"
  REPORTED RESULT: 78.7
- COMPOUND: "Nc1ccn(C2OC(CO)C(O)C2(F)F)c(=O)n1 (stereo not drawn) + CN(C)c1ccc(Nc2c3ccc(NC(=O)CCN4CCCC4)cc3nc3cc(NC(=O)CCN4CCCC4)ccc23)cc1"
  TARGET ENTITY: "695427-040-R-J1-PDC complex spheroids, viability percent T/C"
  REPORTED RESULT: 97.5
- COMPOUND: "CC1COCCN1c1cc(C2(S(C)(=N)=O)CC2)nc(-c2ccnc3[nH]ccc23)n1 (stereo not drawn) + Cc1cnc(CNC(=O)c2c(=O)c3ccc(N4CCCN(C)CC4)nc3n3c2sc2ccccc23)cn1"
  TARGET ENTITY: "695427-040-R-J1-PDC complex spheroids, viability percent T/C"
  REPORTED RESULT: 85.2
- COMPOUND: "O=C(NO)c1cnc(N2CCN(S(=O)(=O)c3ccc4ccccc4c3)CC2)nc1 + CN(C)c1ccc(Nc2c3ccc(NC(=O)CCN4CCCC4)cc3nc3cc(NC(=O)CCN4CCCC4)ccc23)cc1"
  TARGET ENTITY: "695427-040-R-J1-PDC complex spheroids, viability percent T/C"
  REPORTED RESULT: 107
- COMPOUND: "CC1COCCN1c1cc(C2(S(C)(=N)=O)CC2)nc(-c2ccnc3[nH]ccc23)n1 (stereo not drawn) + CN(C)c1ccc(Nc2c3ccc(NC(=O)CCN4CCCC4)cc3nc3cc(NC(=O)CCN4CCCC4)ccc23)cc1"
  TARGET ENTITY: "695427-040-R-J1-PDC complex spheroids, viability percent T/C"
  REPORTED RESULT: 109
- COMPOUND: "COc1ncnc(C2CC2)c1-c1ncc2cnn(Cc3ccc(-c4nc(C(F)(F)F)cn4C(C)C)cc3)c2n1 + Cc1cnc(CNC(=O)c2c(=O)c3ccc(N4CCCN(C)CC4)nc3n3c2sc2ccccc23)cn1"
  TARGET ENTITY: "695427-040-R-J1-PDC complex spheroids, viability percent T/C"
  REPORTED RESULT: 90.4
- COMPOUND: "C=CCn1c(=O)c2cnc(Nc3ccc(N4CCN(C)CC4)cc3)nc2n1-c1cccc(C(C)(C)O)n1 + Cc1cnc(CNC(=O)c2c(=O)c3ccc(N4CCCN(C)CC4)nc3n3c2sc2ccccc23)cn1"
  TARGET ENTITY: "695427-040-R-J1-PDC complex spheroids, viability percent T/C"
  REPORTED RESULT: 79.5
- COMPOUND: "Cc1cccc(N(C)C(=O)C2C(O)CCN2c2nc(C)cc(C(F)(F)F)c2C#N)c1 (stereo not drawn) + Cc1cnc(CNC(=O)c2c(=O)c3ccc(N4CCCN(C)CC4)nc3n3c2sc2ccccc23)cn1"
  TARGET ENTITY: "695427-040-R-J1-PDC complex spheroids, viability percent T/C"
  REPORTED RESULT: 87
- COMPOUND: "Cc1cccc(N(C)C(=O)C2C(O)CCN2c2nc(C)cc(C(F)(F)F)c2C#N)c1 (stereo not drawn) + CN(C)c1ccc(Nc2c3ccc(NC(=O)CCN4CCCC4)cc3nc3cc(NC(=O)CCN4CCCC4)ccc23)cc1"
  TARGET ENTITY: "695427-040-R-J1-PDC complex spheroids, viability percent T/C"
  REPORTED RESULT: 110
- COMPOUND: "O=C(c1cc(Cc2n[nH]c(=O)c3ccccc23)ccc1F)N1CCN(C(=O)C2CC2)CC1 + Cc1cnc(CNC(=O)c2c(=O)c3ccc(N4CCCN(C)CC4)nc3n3c2sc2ccccc23)cn1"
  TARGET ENTITY: "695427-040-R-J1-PDC complex spheroids, viability percent T/C"
  REPORTED RESULT: 102
- COMPOUND: "Cc1cccc(N(C)C(=O)C2C(O)CCN2c2nc(C)cc(C(F)(F)F)c2C#N)c1 (stereo not drawn) + Cc1[nH]c2ccc(F)cc2c1-c1nc2c3cccnc3c3ncccc3c2[nH]1"
  TARGET ENTITY: "695427-040-R-J1-PDC complex spheroids, viability percent T/C"
  REPORTED RESULT: 102
- COMPOUND: "C#Cc1c(F)ccc2cc(O)cc(-c3ncc4c(N5CC6CCC(C5)N6)nc(OCC56CCCN5CC(F)C6)nc4c3F)c12 (stereo not drawn) + Cc1[nH]c2ccc(F)cc2c1-c1nc2c3cccnc3c3ncccc3c2[nH]1"
  TARGET ENTITY: "695427-040-R-J1-PDC complex spheroids, viability percent T/C"
  REPORTED RESULT: 117
